Listed next: entries and their corresponding EC50.
Test system: recombinant NL-Rluc virus (NL4-3 with Renilla Luciferase gene) in MT-2 cells
PROTOCOL DETAILS: Inhibition of HIV replication (NL-Rluc luciferase reporter virus, MT-2 cells)
Format: cell-based, human immunodeficiency virus (HIV)
CONDITION INFO: NL43, 120 h, read-out: Activity
Where a name gives a salt, the structure may show the parent alone.
MEASURE: EC50

Cc1ccc(-c2c(C(OC(C)(C)C)C(=O)O)c(C)nc3cc(-c4ccccc4)nn23)cc1C (stereo not drawn) [Example 1, TFA salt]
> 1 µM
Cc1nc2cc(-c3cccc(-c4ccccc4F)c3)nn2c(-c2cc(F)c3c(c2C)CCCO3)c1[C@H](OC(C)(C)C)C(=O)O [Example 118]
< 0.1 µM
Cc1nc2cc(-c3ccccc3)nn2c(-c2ccc3c4c(cccc24)CC3)c1C(OC(C)(C)C)C(=O)O (stereo not drawn) [Example 65]
> 1 µM
